# Protocol: qHTS assay to identify small molecule agonists of the sonic hedgehog signaling (Shh) pathway (AID 1259368);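 note: NIH/3T3-derived 3T3Gli1-Luc cells carrying a stable Gli1-driven firefly luciferase reporter; nearly all actives have a fitted effect of over 15% in size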
# Assay setup: NIH/3T3 Gli1-Luc reporter, luciferase, 24 h; series mostly up to 92.4 µM
Calls of active or inactive are those of the source. Calls come from the whole dose curve.
Attribute measured: outcome

INSERT INTO results (molecule, value) VALUES
  ('CS(=O)(=O)c1ccc(C(=O)C2C(=O)CCCC2=O)c([N+](=O)[O-])c1', 'inactive'),
  ('[Cl][Sb]([Cl])[Cl]', 'inactive'),
  ('CCCCOP(=O)(CCCC)OCCCC', 'inactive'),
  ('Oc1ccccc1Br', 'inactive'),
  ('BrCBr', 'inactive'),
  ('O=[N+]([O-])c1ccc2ccc3cccc4ccc1c2c34', 'inactive'),
  ('CCOc1cc(C(C)(C)C)ccc1C1COC(c2c(F)cccc2F)=N1 (stereo not given)', 'inactive'),
  ('CCN(CC)c1c([N+](=O)[O-])cc(C(F)(F)F)c(N)c1[N+](=O)[O-]', 'inactive'),
  ('CCOP(=S)(OCC)SCS(=O)(=O)C(C)(C)C', 'inactive'),
  ('C[C@H]1CC[C@@H]2[C@@H](C)[C@H]3[C@H](C[C@H]4[C@@H]5CC=C6CC(O[C@@H]7O[C@H](CO)[C@H](O)[C@H](O[C@@H]8O[C@H](CO)[C@@H](O)[C@H](O)[C@H]8O)[C@H]7O[C@H]7O[C@@H](C)[C@H](O)[C@@H](O)[C@H]7O)CC[C@]6(C)[C@H]5CC[C@]34C)N2C1 (stereo not given in full)', 'inactive');

* * *

# Protocol: qHTS RealTime-Glo MT Cell Viability Assay in HepG2 cells - 24 hour (AID 1224867); note: nearly all actives have a fitted effect of over 50% in size
# Assay setup: RealTime-Glo luminescence; series mostly up to 76.8 µM
Results filed as inconclusive are left out. Active and inactive are the calls of the source. The call rests on the fitted dose curve; in most records, active means well fitted cell-killing curve with a large enough effect in the repeat runs; inconclusive means weak or mixed curves; inactive means flat fitted curve, though single readings scatter.
Outcomes: Yes (active), No (inactive)

INSERT INTO assay_data (molecule, class_name) VALUES
  ('CC(C)OS(C)(=O)=O', 'No'),
  ('COP(=O)(CCC(=O)NCO)OC', 'No'),
  ('COc1ccc(N)cc1N', 'No'),
  ('O=[N+]([O-])c1cc(C(F)(F)F)c(Cl)c([N+](=O)[O-])c1Cl', 'Yes'),
  ('COC12CC[C@@]3(C[C@@H]1C(C)(O)C(C)(C)C)[C@H]1Cc4ccc(O)c5c4[C@@]3(CCN1CC1CC1)[C@H]2O5 (some centres not stated)', 'Yes'),
  ('CCC(C)c1cc(C(C)(C)C)cc(-n2nc3ccccc3n2)c1O (configuration not stated)', 'No'),
  ('C=COCCCl', 'No'),
  ('ClCc1ccccc1CCl', 'No'),
  ('CNC(C)Cc1ccc2c(c1)OCO2 (configuration not stated)', 'No'),
  ('FC(Cl)(Cl)Cl', 'No'),
  ('CCOC(=O)C1(c2ccccc2)CCN(CCC(C#N)(c2ccccc2)c2ccccc2)CC1', 'No'),
  ('COc1cc(N)c(Cl)cc1C(=O)NC1CN2CCC1CC2 (configuration not stated)', 'No'),
  ('CCOP(=O)(NC(C)C)Oc1ccc(SC)c(C)c1 (configuration not stated)', 'No'),
  ('[Cl][Sb]([Cl])[Cl]', 'No'),
  ('CC1(C)CC/C(=C/c2ccc(Cl)cc2)C1(O)Cn1cncn1 (configuration not stated)', 'No'),
  ('CCOC(=O)OC1=C(c2cc(C)ccc2C)C(=O)NC12CCC(OC)CC2 (configuration not stated)', 'No'),
  ('O=C/C(Cl)=C(/Cl)C(=O)O', 'No'),
  ('COP(=S)(OC)Oc1cc(Cl)c(Br)cc1Cl', 'No'),
  ('c1ccc2c(c1)[nH]c1cnccc12', 'No'),
  ('S=C=Nc1cccc2ccccc12', 'No'),
  ('CC(c1ccc(O)cc1)c1ccc(O)cc1', 'No'),
  ('CC(C)(COCC1CO1)COCC1CO1 (configuration not stated)', 'No'),
  ('N#CNC#N', 'No'),
  ('CC(C)(C)c1cc([N+](=O)[O-])cc(C(C)(C)C)c1O', 'No'),
  ('ClC1=C(Cl)[C@]2(Cl)[C@@H]3[C@@H]4C[C@@H]([C@H]5O[C@@H]45)[C@@H]3[C@@]1(Cl)C2(Cl)Cl', 'Yes'),
  ('CCCCCCCCCCCCBr', 'No'),
  ('O=C(NC(=O)c1c(F)cccc1F)Nc1cc(Cl)c(OC(F)(F)C(F)F)c(Cl)c1', 'No');

* * *

# Target system: Nuclear receptor subfamily 1 group I member 2 (Homo sapiens) (UniProt O75469)
# Sequence (O75469 whole entry, looked up): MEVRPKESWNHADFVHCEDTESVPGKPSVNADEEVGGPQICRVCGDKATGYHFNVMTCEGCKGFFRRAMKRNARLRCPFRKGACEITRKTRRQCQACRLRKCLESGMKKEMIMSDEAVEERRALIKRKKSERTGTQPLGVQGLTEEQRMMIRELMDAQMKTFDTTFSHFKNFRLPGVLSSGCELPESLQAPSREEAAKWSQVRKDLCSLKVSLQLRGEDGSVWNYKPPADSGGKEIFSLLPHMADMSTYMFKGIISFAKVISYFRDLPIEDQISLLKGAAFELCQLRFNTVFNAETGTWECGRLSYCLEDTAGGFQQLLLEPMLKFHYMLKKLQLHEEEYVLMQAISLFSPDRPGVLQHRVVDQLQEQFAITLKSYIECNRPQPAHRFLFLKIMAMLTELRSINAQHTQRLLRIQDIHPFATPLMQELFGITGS
# Protocol: Human pregnane X receptor (PXR) small molecule agonists, qHTS assay (AID 1346982); note: nearly all actives have a fitted effect of over 35% in size
# Assay setup: PXR-Luc HepG2, CYP3A4 luciferase reporter, 24 h; series mostly up to 92.4 µM
Inconclusive results are not listed. Calls of active or inactive are those of the source. The call rests on the fitted dose curve; in most records, active means well fitted activation curve with a large enough effect in the repeat runs; inconclusive means weak or mixed curves; inactive means no such curve, though single readings can be large or run the other way.
Possible outcomes: true (1) for active, false (0) for inactive

INSERT INTO results (compound, class_name) VALUES
  ('CCCCCCCCCBr', 'false (0)'),
  ('CC(C)OC(=S)S', 'true (1)'),
  ('CC1(C)CC/C(=C/c2ccc(Cl)cc2)C1(O)Cn1cncn1 (configuration not stated)', 'true (1)'),
  ('Fc1ccc(Oc2ccnc3cc(Cl)cc(Cl)c23)cc1', 'true (1)'),
  ('CC(C)CBr', 'false (0)'),
  ('CCc1nn(C)c(C(=O)NCc2ccc(C(C)(C)C)cc2)c1Cl', 'true (1)'),
  ('CC(Cl)CN(C)C (configuration not stated)', 'false (0)'),
  ('COC(=O)N(C(=O)N1COC2(C(=O)OC)Cc3cc(Cl)ccc3C2=N1)c1ccc(OC(F)(F)F)cc1 (configuration not stated)', 'true (1)'),
  ('COc1ccc(/C(=C/C(=O)N2CCOCC2)c2ccc(Cl)cc2)cc1OC', 'true (1)'),
  ('CC(C)[C@H](C(=O)OC(C#N)c1cccc(Oc2ccccc2)c1)c1ccc(OC(F)F)cc1 (some centres not stated)', 'true (1)'),
  ('CC(C)(COCC1CO1)COCC1CO1 (configuration not stated)', 'false (0)'),
  ('c1ccc2cc3c(cc2c1)-c1cccc2cccc-3c12', 'true (1)'),
  ('CC(C)CCCCCCCOP(=O)(Oc1ccccc1)Oc1ccccc1', 'true (1)'),
  ('Clc1ccc(Oc2ccccc2)cc1', 'false (0)'),
  ('CCOP(=S)(OCC)SCS(=O)(=O)CC', 'false (0)'),
  ('CCOc1cc(C(C)(C)C)ccc1C1COC(c2c(F)cccc2F)=N1 (configuration not stated)', 'true (1)'),
  ('N#CCCO', 'false (0)'),
  ('CC(C)OC(=O)C(O)(c1ccc(Cl)cc1)c1ccc(Cl)cc1', 'true (1)'),
  ('C=COCCCl', 'false (0)'),
  ('CCSC(C)CC1CC(=O)C(/C(CC)=N/OC/C=C/Cl)=C(O)C1 (configuration not stated)', 'false (0)'),
  ('CC1CCC(C(C)C)C(OC(=O)c2ccccc2N)C1 (configuration not stated)', 'true (1)'),
  ('Nc1ccccc1C(=O)Oc1ccc2ccccc2c1', 'true (1)'),
  ('Clc1ccc(CO/N=C(\Cn2ccnc2)c2ccc(Cl)cc2Cl)c(Cl)c1', 'true (1)'),
  ('Nc1ccccc1C(=O)OC/C=C/c1ccccc1', 'true (1)'),
  ('Cc1ccc(C(=O)Cl)cc1', 'false (0)'),
  ('CN(C)CCc1c[nH]c2cccc(O)c12', 'false (0)'),
  ('CC(=O)c1cc(C(C)(C)C)cc2c1CCC2(C)C', 'false (0)');

* * *

# Protocol: A CellTox Green Cytotoxicity Assay to monitor cytotoxicity in HepG2 cells - 24 hour (AID 1224878); note: nearly all actives have a fitted effect of over 45% in size
# Assay setup: CellTox Green fluorescence; series mostly up to 76.8 µM
Inconclusive results are not listed. Activity calls are given as the source filed them. The call rests on the fitted dose curve; in most records, active means well fitted activation curve with a large enough effect in the repeat runs; inconclusive means weak or mixed curves; inactive means flat fitted curve, though single readings scatter.
Labels: active, inactive

INSERT INTO measurements (compound, class_name) VALUES
  ('C=CCOC(N)=O', 'inactive'),
  ('CS(=O)(=O)c1ccc(C(=O)C2C(=O)CCCC2=O)c([N+](=O)[O-])c1', 'active'),
  ('O=C(CCl)Nc1ccccc1', 'inactive'),
  ('CCOC(=O)c1ccccc1S(=O)(=O)NC(=O)Nc1nc(Cl)cc(OC)n1', 'inactive'),
  ('CC(C)CBr', 'inactive'),
  ('N#CCCSCCC#N', 'inactive'),
  ('O=[N+]([O-])c1ccc2ccc3cccc4ccc1c2c34', 'inactive'),
  ('CCCCCCCCCCCCBr', 'inactive'),
  ('CCOP(=S)(OCC)SCS(=O)(=O)C(C)(C)C', 'inactive'),
  ('Fc1cccc(Cl)c1CCl', 'inactive'),
  ('C[C@@H]1O[C@@H](O[C@@H]2C=C3CC[C@@H]4[C@H](CC[C@]5(C)[C@@H](c6ccc(=O)oc6)CC[C@]45O)[C@@]3(C)CC2)[C@H](O)[C@H](O)[C@H]1O', 'inactive'),
  ('[Cl][Sn]([c]1ccccc1)([c]1ccccc1)[c]1ccccc1', 'active'),
  ('Oc1ccc(C(=C(Cl)Cl)c2ccc(O)cc2)cc1', 'inactive'),
  ('CCSC(C)CC1CC(=O)C(/C(CC)=N/OC/C=C/Cl)=C(O)C1 (configuration not stated)', 'inactive'),
  ('C[C@]12Cc3nonc3C[C@@H]1CC[C@@H]1[C@@H]2CC[C@@]2(C)[C@H]1CC[C@]2(C)O', 'inactive'),
  ('CCCCN(CCCC)C(=S)[S-].CCCCN(CCCC)C(=S)[S-].[Zn+2]', 'active'),
  ('CCCCCCCCCCCCCN1CC(C)OC(C)C1 (configuration not stated)', 'inactive'),
  ('Oc1ccc(I)cc1', 'inactive'),
  ('C[C@H]1CC[C@@H]2[C@@H](C)[C@H]3[C@H](C[C@H]4[C@@H]5CC=C6CC(O[C@@H]7O[C@H](CO)[C@H](O)[C@H](O[C@@H]8O[C@H](CO)[C@@H](O)[C@H](O)[C@H]8O)[C@H]7O[C@H]7O[C@@H](C)[C@H](O)[C@@H](O)[C@H]7O)CC[C@]6(C)[C@H]5CC[C@]34C)N2C1 (some centres not stated)', 'active'),
  ('O=C(NC(=O)c1c(F)cccc1F)Nc1cc(Cl)c(OC(F)(F)C(F)F)c(Cl)c1', 'inactive'),
  ('CCOc1cc(C(C)(C)C)ccc1C1COC(c2c(F)cccc2F)=N1 (configuration not stated)', 'inactive'),
  ('Clc1ccc(-c2ccc(Cl)c(Cl)c2Cl)c(Cl)c1Cl', 'inactive');
